System: Staphylococcus epidermidis
Assay: Antibacterial activity against aminoglycosides-susceptible Staphylococcus epidermidis by double microdilution method
Format: functional
MIC overview
Number in µg/mL, nothing else.

Guide cases for MIC, answers given:
- compound: "NC[C@H]1O[C@H](O[C@H]2[C@H](O)[C@@H](O[C@H]3O[C@H](CO)[C@@H](O)[C@H](N)[C@H]3O)[C@H](NCc3cn(CCCCCCN4CCN(c5cc6c(cc5F)c(=O)c(C(=O)O)cn6C5CC5)CC4)nn3)C[C@@H]2N)[C@H](O)[C@@H](O)[C@@H]1O"
  assay target: "Staphylococcus epidermidis"
  measure unit: "µg/mL"
  data value: 24
- compound: "NC[C@H]1O[C@H](O[C@H]2[C@H](O)[C@@H](O[C@H]3O[C@H](CO)[C@@H](O)[C@H](N)[C@H]3O)[C@H](NCc3cn(Cc4cccc(CN5CCN(c6cc7c(cc6F)c(=O)c(C(=O)O)cn7C6CC6)CC5)c4)nn3)C[C@@H]2N)[C@H](O)[C@@H](O)[C@@H]1O"
  assay target: "Staphylococcus epidermidis"
  measure unit: "µg/mL"
  data value: 18
- compound: "NC[C@H]1O[C@H](O[C@H]2[C@H](O)[C@@H](O[C@H]3O[C@H](CO)[C@@H](O)[C@H](N)[C@H]3O)[C@H](NCc3cn(Cc4ccc(CN5CCN(c6cc7c(cc6F)c(=O)c(C(=O)O)cn7C6CC6)CC5)cc4)nn3)C[C@@H]2N)[C@H](O)[C@@H](O)[C@@H]1O"
  assay target: "Staphylococcus epidermidis"
  measure unit: "µg/mL"
  data value: 3
- compound: "NC[C@H]1O[C@H](O[C@H]2[C@H](O)[C@@H](O[C@H]3O[C@H](CO)[C@@H](O)[C@H](N)[C@H]3O)[C@H](NC(=O)CCc3cn(CCOCCN4CCN(c5cc6c(cc5F)c(=O)c(C(=O)O)cn6C5CC5)CC4)nn3)C[C@@H]2N)[C@H](O)[C@@H](O)[C@@H]1O"
  assay target: "Staphylococcus epidermidis"
  measure unit: "µg/mL"
  data value: 24
- compound: "NC[C@H]1O[C@H](O[C@H]2[C@H](O)[C@@H](O[C@H]3O[C@H](CO)[C@@H](O)[C@H](N)[C@H]3O)[C@H](NC(=O)CCc3cn(Cc4ccc(CN5CCN(c6cc7c(cc6F)c(=O)c(C(=O)O)cn7C6CC6)CC5)cc4)nn3)C[C@@H]2N)[C@H](O)[C@@H](O)[C@@H]1O"
  assay target: "Staphylococcus epidermidis"
  measure unit: "µg/mL"
  data value: 18

Problem: // lookup MIC for O=C(O)c1cn(C2CC2)c2cc(N3CCNCC3)c(F)cc2c1=O [CIPROFLOXACIN]
Solution: 0.094

Problem: // lookup MIC for NC[C@H]1O[C@H](O[C@H]2[C@H](O)[C@@H](O[C@H]3O[C@H](CO)[C@@H](O)[C@H](N)[C@H]3O)[C@H](NC(=O)CCc3cn(CCN4CCN(c5cc6c(cc5F)c(=O)c(C(=O)O)cn6C5CC5)CC4)nn3)C[C@@H]2N)[C@H](O)[C@@H](O)[C@@H]1O
Solution: 18

Problem: // lookup MIC for NC[C@H]1O[C@H](O[C@H]2[C@H](O)[C@@H](O[C@H]3O[C@H](CO)[C@@H](O)[C@H](N)[C@H]3O)[C@H](NCc3cn(CCN4CCN(c5cc6c(cc5F)c(=O)c(C(=O)O)cn6C5CC5)CC4)nn3)C[C@@H]2N)[C@H](O)[C@@H](O)[C@@H]1O
Solution: 6

---

Test system: Escherichia coli
Experiment: Antibacterial activity against aminoglycosides-resistant Escherichia coli BL21 harboring pET11d encode for APH(3')-2b resistance enzyme by double microdilution method
Assay type: functional
quantity kind: MIC (µg/mL)
Number in µg/mL, nothing else.

Guide cases for MIC, answers given:
- molecule: "NC[C@H]1O[C@H](O[C@H]2[C@H](O)[C@@H](O[C@H]3O[C@H](CO)[C@@H](O)[C@H](N)[C@H]3O)[C@H](NC(=O)CCc3cn(CC(O)CN4CCN(c5cc6c(cc5F)c(=O)c(C(=O)O)cn6C5CC5)CC4)nn3)C[C@@H]2N)[C@H](O)[C@@H](O)[C@@H]1O (some centres undefined)"
  assay target: "Escherichia coli"
  MIC [µg/mL]: 1.5
- molecule: "NC[C@H]1O[C@H](O[C@H]2[C@H](O)[C@@H](O[C@H]3O[C@H](CO)[C@@H](O)[C@H](N)[C@H]3O)[C@H](NCc3cn(CCCCCCN4CCN(c5cc6c(cc5F)c(=O)c(C(=O)O)cn6C5CC5)CC4)nn3)C[C@@H]2N)[C@H](O)[C@@H](O)[C@@H]1O"
  assay target: "Escherichia coli"
  MIC [µg/mL]: 0.8
- molecule: "NC[C@H]1O[C@H](O[C@H]2[C@H](O)[C@@H](O[C@H]3O[C@H](CO)[C@@H](O)[C@H](N)[C@H]3O)[C@H](NC(=O)CCc3cn(Cc4cccc(CN5CCN(c6cc7c(cc6F)c(=O)c(C(=O)O)cn7C6CC6)CC5)c4)nn3)C[C@@H]2N)[C@H](O)[C@@H](O)[C@@H]1O"
  assay target: "Escherichia coli"
  MIC [µg/mL]: 1.5

Consider now this further molecule.
Problem: // lookup MIC for NC[C@H]1O[C@H](O[C@H]2[C@H](O)[C@@H](O[C@H]3O[C@H](CO)[C@@H](O)[C@H](N)[C@H]3O)[C@H](NC(=O)CCc3cn(CCN4CCN(c5cc6c(cc5F)c(=O)c(C(=O)O)cn6C5CC5)CC4)nn3)C[C@@H]2N)[C@H](O)[C@@H](O)[C@@H]1O
Solution: 0.4

---

MIC overview
Test system: Escherichia coli
Assay: Antibacterial activity against kanamycin-resistant Escherichia coli AG100A by double microdilution method
Assay type: functional
Number in µg/mL, nothing else.

Guide cases for MIC, answers given:
- compound: "NC[C@H]1O[C@H](O[C@H]2[C@H](O)[C@@H](O[C@H]3O[C@H](CO)[C@@H](O)[C@H](N)[C@H]3O)[C@H](NC(=O)CCc3cn(CC(O)CN4CCN(c5cc6c(cc5F)c(=O)c(C(=O)O)cn6C5CC5)CC4)nn3)C[C@@H]2N)[C@H](O)[C@@H](O)[C@@H]1O (some centres undefined)"
  quantity kind: "MIC"
  data value: 1.5
- compound: "NC[C@H]1O[C@H](O[C@H]2[C@H](O)[C@@H](O[C@H]3O[C@H](CO)[C@@H](O)[C@H](N)[C@H]3O)[C@H](NCc3cn(CCCCCCN4CCN(c5cc6c(cc5F)c(=O)c(C(=O)O)cn6C5CC5)CC4)nn3)C[C@@H]2N)[C@H](O)[C@@H](O)[C@@H]1O"
  quantity kind: "MIC"
  data value: 1.5

Problem: // lookup MIC for NC[C@H]1O[C@H](O[C@H]2[C@H](O)[C@@H](O[C@H]3O[C@H](CO)[C@@H](O)[C@H](N)[C@H]3O)[C@H](N)C[C@@H]2N)[C@H](O)[C@@H](O)[C@@H]1O [KANAMYCIN]
Solution: 96

Problem: // lookup MIC for NC[C@H]1O[C@H](O[C@H]2[C@H](O)[C@@H](O[C@H]3O[C@H](CO)[C@@H](O)[C@H](N)[C@H]3O)[C@H](NCc3cn(CC(O)CN4CCN(c5cc6c(cc5F)c(=O)c(C(=O)O)cn6C5CC5)CC4)nn3)C[C@@H]2N)[C@H](O)[C@@H](O)[C@@H]1O (some centres undefined)
Solution: 0.37

---

Test system: Escherichia coli
Assay: Antibacterial activity against aminoglycosides-resistant Escherichia coli BL21 harboring pET11d encode for APH(3')-2b resistance enzyme by double microdilution method
Assay type: functional
quantity kind: MIC (µg/mL)
Number in µg/mL, nothing else.

Guide cases for MIC, answers given:
- molecule: "NC[C@H]1O[C@H](O[C@H]2[C@H](O)[C@@H](O[C@H]3O[C@H](CO)[C@@H](O)[C@H](N)[C@H]3O)[C@H](NCc3cn(CC(O)CN4CCN(c5cc6c(cc5F)c(=O)c(C(=O)O)cn6C5CC5)CC4)nn3)C[C@@H]2N)[C@H](O)[C@@H](O)[C@@H]1O (some centres undefined)"
  assay target: "Escherichia coli"
  measure unit: "µg/mL"
  data value: 0.3
- molecule: "NC[C@H]1O[C@H](O[C@H]2[C@H](O)[C@@H](O[C@H]3O[C@H](CO)[C@@H](O)[C@H](N)[C@H]3O)[C@H](NC(=O)CCc3cn(CCOCCN4CCN(c5cc6c(cc5F)c(=O)c(C(=O)O)cn6C5CC5)CC4)nn3)C[C@@H]2N)[C@H](O)[C@@H](O)[C@@H]1O"
  assay target: "Escherichia coli"
  measure unit: "µg/mL"
  data value: 0.8

Problem: // lookup MIC for NC[C@H]1O[C@H](O[C@H]2[C@H](O)[C@@H](O[C@H]3O[C@H](CO)[C@@H](O)[C@H](N)[C@H]3O)[C@H](NC(=O)CCc3cn(Cc4ccc(CN5CCN(c6cc7c(cc6F)c(=O)c(C(=O)O)cn7C6CC6)CC5)cc4)nn3)C[C@@H]2N)[C@H](O)[C@@H](O)[C@@H]1O
Solution: 1.5

meta.source: ChEMBL document CHEMBL4033618
